System: HS 578T breast
Assay: NCI-60 one-dose screen, 48 h
Settings: 10 µM unless noted
About 83,000 compounds went through this panel and 20% of them were active in at least one assay; those are over-represented in the sample as a whole. The source made the active and inactive calls. How the source made its calls: active means growth percent below 10; inactive means the rest.
Thanks in advance; please answer with one of these: active, inactive

compound	classLabel
Cc1cc(=O)[nH]c2c(C#N)cnn12	inactive
N#Cc1cccc(NC(=O)c2oc3ccccc3c2-c2cnn(-c3ccccc3)c2)c1	inactive
CN1CCN(Cc2ccc(NC(=O)c3cncc(C#Cc4cnc(N)c5ccccc45)c3)cc2C(F)(F)F)CC1	active

Qu. Hello, I am checking results. What call was entered for COc1ccc(C(=O)Nc2ncc(Cc3ccc(F)cc3)s2)cc1 ?
Ans. inactive

Qu. Hello, I am checking results. What call was entered for CC(=O)c1cc(O)c2ccccc2c1O ?
Ans. inactive

Qu. Hello, I am checking results. What call was entered for O=C1N[C@@H]2NC(=[N+]3CCOCC3)N[C@@H]2N1 ?
Ans. inactive

Qu. Hello, I am checking results. What call was entered for COc1ccc(-c2cn(-c3cc(OC)c(OC)c(OC)c3)c(=O)n2C(C)=O)cc1 ?
Ans. inactive

Qu. Hello, I am checking results. What call was entered for Fc1cc2c(cc1Cl)N(c1ncnc3ccc(-c4cnc5[nH]ncc5c4)cc13)CC2 ?
Ans. inactive

Qu. Hello, I am checking results. What call was entered for CCn1c(SCC(=O)c2ccc(Br)cc2)nnc1-c1ccncc1 ?
Ans. inactive

Qu. Hello, I am checking results. What call was entered for COc1cc(/C=C/C(=O)c2cccc(Nc3nc(Nc4ccccc4)nc(Nc4ccccc4)n3)c2)cc(OC)c1OC ?
Ans. inactive

Qu. Hello, I am checking results. What call was entered for CNC(=O)c1c(NC(=O)c2ccc(C(F)(F)F)cc2)sc2c1CCC(=O)C2 ?
Ans. inactive

Recorded values, source PubChem BioAssay (NCI).
